Taken from PubChem BioAssay (NCI).

Test system: SK-MEL-2 melanoma
experiment: NCI tumour cell line growth inhibition, 48 h
Where a SMILES comes first, the peptide text is derived from it. [ ]: non-standard residue; d: D form. The star is where a group is joined. ξ: configuration not given here. NMeY = CN[C@@H](Cc1ccc(O)cc1)C(=O)O; Cbz = O=C(OCc1ccccc1)*; ξA = CC(N)C(=O)O
Recorded TGI values for a group of molecules are listed next.
parameter.measured: TGI

[[record]]
molecule = "CCN(CC)CCOc1ccc(/C=C2\\C[C@H]3[C@@H]4CC=C5C[C@@H](OC(C)=O)CC[C@]5(C)[C@H]4CC[C@]3(C)[C@H]2OC(C)=O)cc1OC"
parameter_measured = "TGI"
observed_value = "> 50 µM"

[[record]]
molecule = "COc1ccc(C[C@@H](C(=O)NCC(N)=O)N(C)C(=O)[C@@H]2CCCN2C(=O)[C@H](CC(C)C)NC(=O)C(C)NC(=O)OCc2ccccc2)cc1 (some centres not stated) (Cbz-[ξA]LP[NMeY](Me)G-NH2)"
parameter_measured = "TGI"
observed_value = "> 100 µM"

[[record]]
molecule = "NC(Cc1nn[nH]n1)C(=O)O (configuration not stated)"
parameter_measured = "TGI"
observed_value = "> 100 µM"

[[record]]
molecule = "O=CNc1cccc2c3c([nH]c12)CCCCCC3"
parameter_measured = "TGI"
observed_value = "> 100 µM"

[[record]]
molecule = "COc1ccc(/C=N/Nc2[nH]c(=S)nc3[nH]ncc23)cc1"
parameter_measured = "TGI"
observed_value = "> 100 µM"

[[record]]
molecule = "CCCCC[C@H](O)[C@H](C)C=C1SCCCS1"
parameter_measured = "TGI"
observed_value = "> 100 µM"

[[record]]
molecule = "O=C(Cc1nc2ccc(C(=O)c3ccccc3)cc2[nH]c1=O)C(=O)Nc1ccccc1[N+](=O)[O-]"
parameter_measured = "TGI"
observed_value = "> 100 µM"

[[record]]
molecule = "Cn1c(=O)c2c3oc(=O)cc(O)c3c(=O)n3c4ccccc4n(c1=O)c23"
parameter_measured = "TGI"
observed_value = "69 µM"

[[record]]
molecule = "Clc1ccc2c(Cl)ncnc2c1"
parameter_measured = "TGI"
observed_value = "> 100 µM"

[[record]]
molecule = "Oc1cc2cc(-c3ccccc3)[nH]c2c2ccccc12"
parameter_measured = "TGI"
observed_value = "43.5 µM"

[[record]]
molecule = "CC(C)OP(=O)(OC(C)C)C(N(C)C)P(=O)(OC(C)C)OC(C)C.[Cl][Sn]([Cl])([Cl])[c]1ccccc1"
parameter_measured = "TGI"
observed_value = "5.3 µM"

[[record]]
molecule = "O=C1/C(=C/c2ccccc2S)N=C(c2ccccc2)N1c1ccc2c(c1)Sc1cc(N3C(=O)/C(=C/c4ccccc4S)N=C3c3ccccc3)ccc1N2"
parameter_measured = "TGI"
observed_value = "44.8 µM"

[[record]]
molecule = "CCOC(=O)c1cc(-c2ccc(OC)c(OC)c2)c[nH]1"
parameter_measured = "TGI"
observed_value = "> 10 µM"

[[record]]
molecule = "COc1ccc(C2=CC(c3cc(OC)c(OC)c(OC)c3)n3ncnc3N2)cc1 (configuration not stated)"
parameter_measured = "TGI"
observed_value = "71.1 µM"

[[record]]
molecule = "COc1cc2oc3ccccc3c(=O)c2cc1CSc1ccccc1N"
parameter_measured = "TGI"
observed_value = "> 77.6 µM"

[[record]]
molecule = "COC(=O)C(C)N1C(=O)c2ccccc2I1OC(C)=O (configuration not stated)"
parameter_measured = "TGI"
observed_value = "> 100 µM"

[[record]]
molecule = "O=C(CCCCCCCCC(=O)OCC1OC(n2cnc3c(=O)[nH]cnc32)C(O)C1O)OCC1OC(n2cnc3c(=O)[nH]cnc32)C(O)C1O (configuration not stated)"
parameter_measured = "TGI"
observed_value = "> 100 µM"

